Recorded normalized growth for the following compounds
assay: chemical genetic growth profiling, strain panel (AID 1159580);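 further: tested at 20 µM; growth read once vehicle control cultures reached saturation at 30 °C; 1 = growth at the plate median or of vehicle wells; lower values mean less growth of the strain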; settings: S. cerevisiae deletion strains, growth OD, locus YBR231C, strain swc5, hits give low values
In all, about 5,500 compounds went through this assay and about 2,000 (36%) were called active. Inconclusive results (about 18%) are left out. Some of the results follow.
Value Kind: normalized growth

{"Compound": "CC(C)c1c(O)c(-c2cc3c(c(C(C)C)c2O)CCC2C(C)(C)CCC[C@]32C)cc2c1CCC1C(C)(C)CCC[C@]21C (stereo partly drawn)", "Observed": 0.99}
{"Compound": "COC(=O)[C@]1(C)CCC[C@]2(C)c3ccc(C(C)C)cc3C(=O)CC12 (stereo partly drawn)", "Observed": 0.968}
{"Compound": "CC(C)c1c(O)ccc2c1CCC1[C@@](C)(C=O)CCC[C@]21C (stereo partly drawn)", "Observed": 0.722}
{"Compound": "C[C@@H]1CC[C@@]2(OC1)O[C@H]1CC3C4CC[C@H]5C[C@@H](O)CC[C@]5(C)C4CC[C@]3(C)[C@H]1[C@@H]2C (stereo partly drawn)", "Observed": 0.988}
{"Compound": "CC(C)c1c(O)ccc2c1CCC1C(C)(C)CCC[C@]21C (stereo partly drawn)", "Observed": 0.258}
{"Compound": "CC1(C)C(=O)C=C[C@@]2(C)C1C=C[C@]1(C)C2CC[C@@]2(C)[C@H](c3ccoc3)OC(=O)C3OC321 (stereo partly drawn)", "Observed": 1}
{"Compound": "NC(N)=NC(=O)c1nc(Cl)c(N)nc1N", "Observed": 1.02}
{"Compound": "CC1CCC2(OC1)OC1CC3C4CC[C@H]5C[C@@H](O)CC[C@]5(C)C4CC(=O)[C@]3(C)C1C2C (stereo partly drawn)", "Observed": 0.996}
{"Compound": "CC1(C)C2CC(=O)[C@]3(C)C(CC[C@@]4(C)[C@H](c5ccoc5)OC(=O)C5OC543)[C@@]2(C)[C@@H](O)C[C@H]1O (stereo partly drawn)", "Observed": 1.01}
{"Compound": "COC(=O)c1c(C)cc(OC)cc1O", "Observed": 0.978}
{"Compound": "C=C1CCC2(OC1)OC1CC3C4CC=C5CC(O)CC(O)C5(C)C4CCC3(C)C1C2C (stereo not drawn)", "Observed": 1.03}
{"Compound": "CC1(C)O[C@H]2CC(=O)OC[C@]23[C@H]2CC[C@@]4(C)[C@H](c5ccoc5)OC(=O)[C@H]5O[C@]54[C@]2(C)C(=O)C[C@@H]13", "Observed": 1}
{"Compound": "Oc1ccc2c(c1)OCC1(O)Cc3cc(O)c(O)cc3C21 (stereo not drawn)", "Observed": 1.01}
{"Compound": "CN[C@@H]1C(O)[C@@H](O[C@@H]2[C@@H](O)[C@H](O[C@H]3OC(CN)=CC[C@H]3N)[C@@H](N)C[C@H]2N)OC[C@]1(C)O (stereo partly drawn)", "Observed": 1.02}
{"Compound": "CN[C@@H]1[C@@H](O)C(OC2[C@@H](N)C[C@@H](N)[C@H](O[C@H]3O[C@H](C(C)O)[C@@H](O)[C@H](O)[C@H]3N)[C@H]2O)OC[C@]1(C)O (stereo partly drawn)", "Observed": 0.991}
{"Compound": "CC(=O)Oc1ccc2c(c1OC(C)=O)OCC1(O)Cc3c(cc(OC(C)=O)c(OC(C)=O)c3OC(C)=O)C21 (stereo not drawn)", "Observed": 0.975}
{"Compound": "CNC(C)C(O)c1ccccc1 (stereo not drawn)", "Observed": 1.02}
{"Compound": "C[C@@H]([C@H](O)c1ccccc1)N(C)C", "Observed": 1.01}
{"Compound": "CC(=O)OC(C)C[N+](C)(C)C (stereo not drawn)", "Observed": 0.991}
{"Compound": "CC[n+]1c(-c2ccccc2)c2cc(N)ccc2c2ccc(N)cc21", "Observed": 0.966}
{"Compound": "C[C@H]1O[C@H](OC2[C@@H](O)[C@@H](O)C(O)[C@H](O)[C@H]2O)[C@@H](N)C[C@@H]1N=C(N)C(=O)O (stereo partly drawn)", "Observed": 0.999}
{"Compound": "O=C1[O][Bi][O]c2ccccc21", "Observed": 1.02}
{"Compound": "COC(=O)[C@@]1(C)CCC[C@]2(C)c3ccc(O)c(C(C)C)c3CCC12 (stereo partly drawn)", "Observed": 0.705}
{"Compound": "CC1(C)C=CC(=O)[C@@]2(C)C1CC(=O)[C@]1(C)C2CC[C@@]2(C)[C@H](c3ccoc3)OC(=O)C3OC321 (stereo partly drawn)", "Observed": 1}
{"Compound": "CC(=O)Oc1ccc2c(c1C(C)C)CCC1C(C)(C)CCC[C@]21C (stereo partly drawn)", "Observed": 1.03}
{"Compound": "CCC(=O)c1c(O)cc(O)cc1O", "Observed": 0.987}
{"Compound": "O=c1c(O)c(-c2ccc(O)c(O)c2)oc2c(O)c(O)cc(O)c12", "Observed": 0.927}
{"Compound": "CC1(C)C(=O)C=C[C@@]2(C)C1CC(=O)[C@]1(C)C2CC[C@@]2(C)[C@H](c3ccoc3)OC(=O)[C@H]3O[C@]321 (stereo partly drawn)", "Observed": 1.03}
{"Compound": "CC1CC[C@]2(NC1)O[C@H]1CC3C4CC[C@H]5C[C@@H](O)CC[C@]5(C)C4CC[C@]3(C)[C@H]1[C@@H]2C (stereo partly drawn)", "Observed": 0.167}
{"Compound": "C[C@@H]1CC[C@@]2(NC1)O[C@H]1C[C@H]3C4CC=C5C[C@@H](O)CC[C@]5(C)C4CC[C@]3(C)C1[C@@H]2C (stereo partly drawn)", "Observed": 0.147}
{"Compound": "O=C(O)C1=C[C@@H](O)[C@@H](O)[C@H](O)C1", "Observed": 0.98}
{"Compound": "O=C1C=C2C(=CCOC2O)O1 (stereo not drawn)", "Observed": 0.73}
{"Compound": "NC(=NCCC[C@H](N)C(=O)O)N[N+](=O)[O-]", "Observed": 1.02}
{"Compound": "OCC(O)C(O)C(O)C(O)C(O)CO (stereo not drawn)", "Observed": 0.991}
{"Compound": "CC(=O)O[C@@H]1CC2C(C)(C)C(=O)C=C[C@]2(C)C2CC[C@@]3(C)[C@H](c4ccoc4)OC(=O)[C@H]4O[C@]43[C@@]21C (stereo partly drawn)", "Observed": 1}
{"Compound": "Oc1cc2c(cc1O)C1c3ccc(O)c(O)c3OCC1(O)C2 (stereo not drawn)", "Observed": 0.956}
{"Compound": "Cc1cc(OC(=O)c2c(C)cc(O)cc2O)cc(O)c1C(=O)O", "Observed": 0.992}
{"Compound": "CC(CC(O)C1OC1(C)C)[C@@H]1CCC2(C)C3=CCC4C(C)(C)C(=O)CCC4(C)C3CC[C@@]12C (stereo partly drawn)", "Observed": 1.04}

###

We begin with a simple list: items and their reported normalized growth.
test: chemical genetic growth profiling, strain panel (AID 1159580);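 further: tested at 20 µM; growth read once vehicle control cultures reached saturation at 30 °C; 1 = growth at the plate median or of vehicle wells; lower values mean less growth of the strain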; settings: S. cerevisiae deletion strains, growth OD, locus YJR066W, strain TOR1 (second series), hits give low values
In all, about 5,500 compounds went through this assay and about 2,000 (36%) were called active. Inconclusive results (about 18%) are left out. This is one part of the list.

{"Compound": "O=S(=O)(CS(=O)(=O)Oc1ccc(Cl)c(Cl)c1)Oc1ccc(Cl)c(Cl)c1", "normalized growth": 0.994}
{"Compound": "COCCCNC(=S)N/N=C\\c1cc(Cl)cc(Cl)c1O", "normalized growth": 0.887}
{"Compound": "COCCCNC(=S)N/N=C\\c1cc(Br)ccc1O", "normalized growth": 0.983}
{"Compound": "CC(NC(=S)N/N=C\\c1ccccc1O)c1ccccc1 (centres undefined)", "normalized growth": 0.944}

###

assay: chemical genetic growth profiling, strain panel (AID 1159580);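 further: tested at 20 µM; growth read once vehicle control cultures reached saturation at 30 °C; 1 = growth at the plate median or of vehicle wells; lower values mean less growth of the strain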; details: S. cerevisiae deletion strains, growth OD, locus YLL026W, hits give low values
Hit rate of the full screen: of about 5,500 compounds, about 2,000 (36%) were called active. Another 18% or so got no clear call; they are omitted. Some of the results follow. Where a SMILES comes first, the peptide text is derived from it.

{"Compound": "CC(=O)O[C@@H]1CC2C(C)(C)C(=O)C=C[C@]2(C)C2CC[C@@]3(C)[C@H](c4ccoc4)OC(=O)[C@H]4O[C@]43[C@@]21C (some centres not stated)", "normalized growth": 1.01}
{"Compound": "COC1=CC(=O)C(C(=O)c2ccccc2)=CC1=O", "normalized growth": 1}
{"Compound": "NC(=NCCC[C@H](N)C(=O)O)N[N+](=O)[O-]", "normalized growth": 1.02}
{"Compound": "COC(=O)[C@H](Cc1ccccc1)NC(=O)[C@@H](N)CC(=O)O (H-Asp-Phe-OMe)", "normalized growth": 1.02}
{"Compound": "C=C[C@H]1CN2CC[C@H]1C[C@@H]2[C@@H](OC(=O)OCC)c1ccnc2ccc(OC)cc12", "normalized growth": 0.985}
{"Compound": "CC1CCC2(OC1)OC1CC3C4CC[C@H]5C[C@@H](O)CC[C@]5(C)C4CC(=O)[C@]3(C)C1C2C (some centres not stated)", "normalized growth": 1.01}
{"Compound": "C[C@@H]1CC[C@@]2(NC1)O[C@H]1C[C@H]3C4CC=C5C[C@@H](O)CC[C@]5(C)C4CC[C@]3(C)C1[C@@H]2C (some centres not stated)", "normalized growth": 0.0713}
{"Compound": "CC(=O)[C@@]1(O)CCC2C3C[C@H](C)C4=CC(=O)C=CC4(C)[C@@]3(F)[C@@H](O)C[C@@]21C (some centres not stated)", "normalized growth": 0.979}
{"Compound": "CC1(C)C(=O)C=C[C@@]2(C)C1CC(=O)[C@]1(C)C2CC[C@@]2(C)[C@H](c3ccoc3)OC(=O)[C@H]3O[C@]321 (some centres not stated)", "normalized growth": 0.997}
{"Compound": "CC/C(=C(/CC)c1ccc(O)cc1)c1ccc(O)cc1", "normalized growth": 1}
{"Compound": "NC(=O)NCCCC(N)C(=O)O (configuration not stated)", "normalized growth": 1.01}
{"Compound": "CCN(Cc1ccncc1)C(=O)C(CO)c1ccccc1 (configuration not stated)", "normalized growth": 1.03}
{"Compound": "CC1(C)C(=O)C=C[C@@]2(C)C1C[C@@H](O)[C@]1(C)C2CC[C@@]2(C)[C@H](c3ccoc3)OC(=O)[C@H]3O[C@]321 (some centres not stated)", "normalized growth": 1}
{"Compound": "C[C@@H]1CC[C@@]2(OC1)OC1CC3C4CC=C5C[C@@H](O)CC[C@]5(C)C4CC[C@]3(C)C1[C@@H]2C (some centres not stated)", "normalized growth": 1}
{"Compound": "CC(CC(C(N)=O)(c1ccccc1)c1ccccc1)N(C)C (configuration not stated)", "normalized growth": 0.986}
{"Compound": "COc1c2ccoc2cc2oc(=O)ccc12", "normalized growth": 0.98}
{"Compound": "CC1CC[C@]2(NC1)O[C@H]1CC3C4CC[C@H]5C[C@@H](O)CC[C@]5(C)C4CC[C@]3(C)[C@H]1[C@@H]2C (some centres not stated)", "normalized growth": 0.0788}
{"Compound": "CC(C)[N+](C)(CCC(C(N)=O)(c1ccccc1)c1ccccc1)C(C)C", "normalized growth": 0.99}
{"Compound": "COc1ccc2ccc(=O)oc2c1", "normalized growth": 1}
{"Compound": "OCC(O)C(O)C(O)C(O)C(O)CO (configuration not stated)", "normalized growth": 0.999}
{"Compound": "COc1ccc(-c2oc3c(CC=C(C)C)c(O[C@@H]4O[C@H](CO)[C@@H](O)[C@H](O)[C@H]4O)cc(O)c3c(=O)c2O[C@@H]2O[C@@H](C)[C@H](O)[C@@H](O)[C@H]2O)cc1", "normalized growth": 1.04}
{"Compound": "CC1(C)C2CC(=O)[C@]3(C)C(CC[C@@]4(C)[C@H](c5ccoc5)OC(=O)C5OC543)[C@@]2(C)[C@@H](O)C[C@H]1O (some centres not stated)", "normalized growth": 1}
{"Compound": "C[C@H]1O[C@H](OC2[C@@H](O)[C@@H](O)C(O)[C@H](O)[C@H]2O)[C@@H](N)C[C@@H]1N=C(N)C(=O)O (some centres not stated)", "normalized growth": 0.989}
{"Compound": "COc1cc(O)c2c(=O)c(O)c(-c3ccc(O)c(O)c3)oc2c1", "normalized growth": 0.934}
{"Compound": "C[C@@H]1CC[C@@]2(OC1)O[C@H]1CC3C4CC[C@H]5C[C@@H](O)CC[C@]5(C)C4CC[C@]3(C)[C@H]1[C@@H]2C (some centres not stated)", "normalized growth": 0.988}
{"Compound": "COC(=O)[C@]1(C)CCC[C@]2(C)c3ccc(C(C)C)cc3C(=O)CC12 (some centres not stated)", "normalized growth": 0.964}
{"Compound": "CC(C1OC(C)(C)C(O)C1O)[C@@H]1CC[C@]2(C)C3=CCC4C(C)(C)C(=O)CC[C@]4(C)C3CC[C@@]12C (some centres not stated)", "normalized growth": 0.997}
{"Compound": "CC(CC(O)C1OC1(C)C)[C@@H]1CCC2(C)C3=CCC4C(C)(C)C(=O)CCC4(C)C3CC[C@@]12C (some centres not stated)", "normalized growth": 0.998}
{"Compound": "CC(C)N(CCC(C(N)=O)(c1ccccc1)c1ccccn1)C(C)C (configuration not stated)", "normalized growth": 0.0653}
{"Compound": "CC1(C)C=CC(=O)[C@@]2(C)C1CC(=O)[C@]1(C)C2CC[C@@]2(C)[C@H](c3ccoc3)OC(=O)C3OC321 (some centres not stated)", "normalized growth": 0.984}
{"Compound": "CC1CC[C@@]2(OC1)O[C@H]1CC3C4CC[C@@H]5C[C@@H](O)CC[C@]5(C)C4CC[C@]3(C)[C@H]1[C@@H]2C (some centres not stated)", "normalized growth": 1.02}
{"Compound": "CC(C)c1c(O)ccc2c1CCC1[C@@](C)(CO)CCC[C@]21C (some centres not stated)", "normalized growth": 1.01}
{"Compound": "CCC(c1ccc(O)cc1)C(CC)c1ccc(O)cc1 (configuration not stated)", "normalized growth": 0.862}
{"Compound": "CNC(=O)Oc1cccc2c1OC(C)(C)O2", "normalized growth": 0.998}
{"Compound": "C[C@]12CCC3c4ccc(O)cc4CCC3C1CC[C@@H]2O (some centres not stated)", "normalized growth": 0.982}
{"Compound": "NC(N)=NC(=O)c1nc(Cl)c(N)nc1N", "normalized growth": 1.02}
{"Compound": "Cc1cc(C2CCCCC2)n(O)c(=O)c1", "normalized growth": 0.0595}

Numbers sourced from PubChem BioAssay AID1159580.
